Record type: pKi measurement. Applies to: Amyloid-beta precursor protein (Homo sapiens, UniProt P05067)
pKi: −log10 of the molar value.
Property measured: pKi

Recorded pKi (compound `O=C(O)c1cc(/C=C\c2ccc(/C=C\c3ccc(O)c(C(=O)O)c3)c(Br)c2)ccc1O` ): 9.89

pKi measured on `O=C(O)c1cc(/C=C\c2ccc(/C=C/c3ccc(O)c(C(=O)O)c3)c(Br)c2)ccc1O` = 9.57

Field pKi (entry `O=C(O)c1cc(/C=C\c2ccc(/C=C/c3ccc(O)c(C(=O)O)c3)cc2Br)ccc1O` ) reads 9.72
